Cited source: patent EP4635500A1

# System: Enterobacterales
# protocolText: MIC, broth microdilution, CDC/FDA Antibiotic Resistance Isolate Bank (Example 7, Tables 8, 11, 12)
# Assay type: cell-based
# studyConditions: Serratia marcescens, KUB No. 5588, AR Bank # 91; read-out: MIC
Below, each entry is listed alongside its reported MIC.
Respond with the bare value in µg/mL.

Answered cases to consult:
[
  {
    "cpdSmiles": "O=C(O)c1cn(C2CC2)c2cc(N3CCNCC3)c(F)cc2c1=O",
    "MIC [µg/mL]": 0.06
  },
  {
    "cpdSmiles": "CO/N=C(\\C(=O)N[C@@H]1C(=O)N2C(C(=O)[O-])=C(C[n+]3ccn4ncccc43)CS[C@H]12)c1nsc(N)n1",
    "MIC [µg/mL]": 0.12
  }
]

Q. Return MIC for the following compound: "NCC[C@H](O)C(=O)N[C@@H]1C[C@H](N)[C@@H](O[C@H]2O[C@H](CN)[C@@H](O)[C@H](O)[C@H]2O)[C@H](O)[C@H]1O[C@H]1O[C@H](CO)[C@@H](O)[C@H](N)[C@H]1O"
A. 1

Q. Return MIC for the following compound: "C[C@H]1[C@H](NC(=O)/C(=N\OC(C)(C)C(=O)O)c2csc(N)n2)C(=O)N1S(=O)(=O)O"
A. 32

###

# Test system: P. aeruginosa
# protocolText: MIC, broth microdilution, CDC/FDA Antibiotic Resistance Isolate Bank (Example 7, Tables 10, 15)
# Type: cell-based
# studyConditions: Pseudomonas aeruginosa, P. aeruginosa KUB No. 579, AR Bank # 447; read-out: MIC
property: MIC
Report the figure along with its unit, number first.

Q. State measured MIC of the compound "C[C@H]1COc2c(N3CCN(C)CC3)c(F)cc3c(=O)c(C(=O)O)cn1c23" with P. aeruginosa.
A. 0.5 µg/mL

Q. State measured MIC of the compound "NCC[C@H](O)C(=O)N[C@@H]1C[C@H](N)[C@@H](O[C@H]2O[C@H](CN)[C@@H](O)[C@H](O)[C@H]2O)[C@H](O)[C@H]1O[C@H]1O[C@H](CO)[C@@H](O)[C@H](N)[C@H]1O" with P. aeruginosa.
A. 8 µg/mL

###

# systemUnderTest: OXA-24 (Acinetobacter baumannii, UniProt Q8RLA6)
# Sequence (Q8RLA6 entry or part of it): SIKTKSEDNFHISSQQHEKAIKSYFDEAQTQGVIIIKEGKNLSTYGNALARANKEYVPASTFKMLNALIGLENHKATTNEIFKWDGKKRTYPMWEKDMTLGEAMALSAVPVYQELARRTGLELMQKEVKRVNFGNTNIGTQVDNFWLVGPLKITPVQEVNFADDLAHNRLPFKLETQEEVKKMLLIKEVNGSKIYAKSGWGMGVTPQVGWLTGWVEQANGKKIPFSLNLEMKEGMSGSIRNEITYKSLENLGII
# protocolText: Ki,app against β-lactamase (Example 1, Table 1)
# studyConditions: OXA-24, class D; 30 min preincubation; n.d.: too low inhibitor activity at 100 µmol/L
property: pKi
Just so you know, pKi here is -log10 of the concentration in molar units; reply with that number alone.

Q. Return pKi for the following compound: C[C@]1(Cn2ccnn2)[C@H](C(=O)O)N2C(=O)C[C@H]2S1(=O)=O [Tazobactam, tazobactam]
A. 7.00

###

# Tested on: A. baumannii
# protocolText: MIC, broth microdilution, CDC/FDA Antibiotic Resistance Isolate Bank (Example 7, Tables 9, 13, 14)
# Type: cell-based, Acinetobacter baumannii
# studyConditions: Acinetobacter baumannii, A. baumannii KUB No. 5706, AR Bank #273; OXA-23, OXA-66; read-out: MIC
property: MIC (µg/mL)
Respond with the bare value in µg/mL.

[
  {
    "cpdSmiles": "CC(C)(O/N=C(\\C(=O)N[C@@H]1C(=O)N2C(C(=O)[O-])=C(C[N+]3(CCNC(=O)c4ccc(O)c(O)c4Cl)CCCC3)CS[C@H]12)c1csc(N)n1)C(=O)O",
    "measured": 0.12
  },
  {
    "cpdSmiles": "C[C@@H](O)[C@H]1C(=O)N2C(C(=O)O)=C(S[C@@H]3CN[C@H](C(=O)N(C)C)C3)[C@H](C)[C@H]12",
    "measured": 32
  }
]

Continue with the compound presented below.
Q. Return MIC for the following compound: "CO/N=C(\C(=O)N[C@@H]1C(=O)N2C(C(=O)[O-])=C(C[n+]3ccn4ncccc43)CS[C@H]12)c1nsc(N)n1"
A. 64

###

# Tested on: A. baumannii
# protocolText: MIC, broth microdilution, CDC/FDA Antibiotic Resistance Isolate Bank (Example 7, Tables 9, 13, 14)
# Type: cell-based, Acinetobacter baumannii
# studyConditions: Acinetobacter baumannii, KUB No. 5746, AR Bank #313; read-out: MIC
Binary call on MIC with cut-off 1 µg/mL: strictly below means Condition met, and equality or higher means Condition not met.

[
  {
    "compound": "CO/N=C(\\C(=O)N[C@@H]1C(=O)N2C(C(=O)[O-])=C(C[n+]3ccn4ncccc43)CS[C@H]12)c1nsc(N)n1 [Cefozopran, cefozopran]",
    "systemUnderTest": "A. baumannii",
    "discreteLabel": "Condition not met"
  },
  {
    "compound": "CN(C)c1cc(NC(=O)CNC(C)(C)C)c(O)c2c1C[C@H]1C[C@H]3[C@H](N(C)C)C(O)=C(C(N)=O)C(=O)[C@@]3(O)C(O)=C1C2=O [Tigecycline, tigecycline]",
    "systemUnderTest": "A. baumannii",
    "discreteLabel": "Condition met"
  },
  {
    "compound": "C[C@H]1COc2c(N3CCN(C)CC3)c(F)cc3c(=O)c(C(=O)O)cn1c23 [Levofloxacin, levofloxacin]",
    "systemUnderTest": "A. baumannii",
    "discreteLabel": "Condition not met"
  }
]

Q. Determine if NCC[C@H](O)C(=O)N[C@@H]1C[C@H](N)[C@@H](O[C@H]2O[C@H](CN)[C@@H](O)[C@H](O)[C@H]2O)[C@H](O)[C@H]1O[C@H]1O[C@H](CO)[C@@H](O)[C@H](N)[C@H]1O [Amikacin, amikacin] shows MIC strictly lower than 1 µg/mL.
A. Condition not met

###

# System: 53 CRE and CPE strains
# protocolText: MICrange, MIC50, MIC80, MIC90 for 53 bacterial isolates (Example 5, Table 5)
# Assay type: cell-based
# studyConditions: 53 bacterial isolates; read-out: MIC80
Below, each entry is listed alongside its reported MIC80.
Respond with the bare value in µg/mL.

[
  {
    "cpdSmiles": "CN(C)c1cc(NC(=O)CNC(C)(C)C)c(O)c2c1C[C@H]1C[C@H]3[C@H](N(C)C)C(O)=C(C(N)=O)C(=O)[C@@]3(O)C(O)=C1C2=O",
    "MIC80 / µg/mL": 1
  }
]

Q. State measured MIC80 of the compound "C[C@H]1COc2c(N3CCN(C)CC3)c(F)cc3c(=O)c(C(=O)O)cn1c23" with 53 CRE and CPE strains.
A. 64

###

# Test system: A. baumannii
# protocolText: MIC, broth microdilution, CDC/FDA Antibiotic Resistance Isolate Bank (Example 7, Tables 9, 13, 14)
# Type: cell-based, Acinetobacter baumannii
# studyConditions: Acinetobacter baumannii, KUB No. 5744, AR Bank #311; read-out: MIC
property: MIC (µg/mL)
Respond with the bare value in µg/mL.

[
  {
    "cpdSmiles": "C[C@H]1COc2c(N3CCN(C)CC3)c(F)cc3c(=O)c(C(=O)O)cn1c23",
    "MIC (µg/mL)": 4
  },
  {
    "cpdSmiles": "CN(C)c1cc(NC(=O)CNC(C)(C)C)c(O)c2c1C[C@H]1C[C@H]3[C@H](N(C)C)C(O)=C(C(N)=O)C(=O)[C@@]3(O)C(O)=C1C2=O",
    "MIC (µg/mL)": 0.5
  }
]

Continue with the compound presented below.
Q. State measured MIC of the compound "CC(C)(O/N=C(\C(=O)N[C@@H]1C(=O)N2C(C(=O)[O-])=C(C[N+]3(CCNC(=O)c4ccc(O)c(O)c4Cl)CCCC3)CS[C@H]12)c1csc(N)n1)C(=O)O" with A. baumannii.
A. 0.5

###

Below, each entry is listed alongside its reported MIC.
# System: A. baumannii
# protocolText: MIC, broth microdilution, CDC/FDA Antibiotic Resistance Isolate Bank (Example 7, Tables 9, 13, 14)
# Type: cell-based, Acinetobacter baumannii
# studyConditions: Acinetobacter baumannii, A. baumannii KUB No. 5718, AR Bank #285; OXA-24, OXA-65; read-out: MIC

[
  {
    "molecule": "O=C(O)c1cn(C2CC2)c2cc(N3CCNCC3)c(F)cc2c1=O [Ciprofloxacin, ciprofloxacin]",
    "measured": "> 64 µg/mL"
  },
  {
    "molecule": "CC(C)(O/N=C(\\C(=O)N[C@@H]1C(=O)N2C(C(=O)[O-])=C(C[N+]3(CCNC(=O)c4ccc(O)c(O)c4Cl)CCCC3)CS[C@H]12)c1csc(N)n1)C(=O)O [Cefiderocol, cefiderocol]",
    "measured": "1 µg/mL"
  },
  {
    "molecule": "NCC[C@H](O)C(=O)N[C@@H]1C[C@H](N)[C@@H](O[C@H]2O[C@H](CN)[C@@H](O)[C@H](O)[C@H]2O)[C@H](O)[C@H]1O[C@H]1O[C@H](CO)[C@@H](O)[C@H](N)[C@H]1O [Amikacin, amikacin]",
    "measured": "64 µg/mL"
  },
  {
    "molecule": "CO/N=C(\\C(=O)N[C@@H]1C(=O)N2C(C(=O)[O-])=C(C[n+]3ccn4ncccc43)CS[C@H]12)c1nsc(N)n1 [Cefozopran, cefozopran]",
    "measured": "32 µg/mL"
  }
]

Q. Return MIC for the following molecule: CN(C)c1cc(NC(=O)CNC(C)(C)C)c(O)c2c1C[C@H]1C[C@H]3[C@H](N(C)C)C(O)=C(C(N)=O)C(=O)[C@@]3(O)C(O)=C1C2=O [Tigecycline, tigecycline]
A. 0.5 µg/mL
